- System: E6SM
- experiment_notes: Effective concentration required to reduce HSV-1 strain KOS virus plaque formation by 50% in E6SM Cell Culture
- Format: functional, cell-based
- condition_notes: Homo sapiens
reported_metric: EC50 (µg/mL)
Entry rule: numbers only, all in µg/mL.

Use the examples below as a reference point.
>  <compound>
Nc1nc2c(ncn2COCCO)c(=O)[nH]1 [ACYCLOVIR]

>  <tested_system>
E6SM

>  <assay_result>
0.07

$$$$
>  <compound>
CCc1nn([C@H]2C[C@H](O)[C@@H](CO)S2)c(=O)nc1O

>  <tested_system>
E6SM

>  <assay_result>
120

$$$$
>  <compound>
Cc1nn([C@H]2C[C@H](O)[C@@H](CO)S2)c(=O)nc1O

>  <tested_system>
E6SM

>  <assay_result>
1.3

$$$$
>  <compound>
Nc1nc2c(ncn2COC(CO)CO)c(=O)[nH]1 [GANCICLOVIR]

>  <tested_system>
E6SM

>  <assay_result>
0.004

$$$$
>  <compound>
O=c1[nH]c(=O)n([C@H]2C[C@H](O)[C@@H](CO)O2)cc1/C=C/Br [BRIVUDINE]

>  <tested_system>
E6SM

>  <assay_result>
0.01

$$$$

Form field - read-out: EC50; system: E6SM; submitted item: Cc1nn([C@H]2C[C@H](O)[C@@H](CO)S2)c(=O)[nH]c1=S
120

Another compound: Cc1nn([C@H]2C[C@H](O)[C@@H](CO)S2)c(=O)nc1N
24

---

- Tested on: E6SM
- experiment_notes: Effective concentration required to reduce vaccinia virus plaque formation by 50% in E6SM Cell Culture
- Assay type: functional, cell-based
- condition_notes: Homo sapiens
reported_metric: EC50 (µg/mL)
Entry rule: numbers only, all in µg/mL.

>  <mol>
Cc1nn([C@H]2C[C@H](O)[C@@H](CO)S2)c(=O)nc1N

>  <EC50 (µg/mL)>
24

$$$$

For Cc1nn([C@H]2C[C@H](O)[C@@H](CO)S2)c(=O)nc1O , what is its reported EC50?
2.2

---

- Tested on: E6SM
- experiment_notes: Effective concentration required to reduce vaccinia virus plaque formation by 50% in E6SM Cell Culture
- Type: functional, cell-based
- condition_notes: Homo sapiens
Overview of recorded EC50 for various compounds

For CCCc1nn([C@H]2C[C@H](O)[C@@H](CO)S2)c(=O)[nH]c1=O , what is its reported EC50?
> 200 µg/mL

Another compound: Nc1nc2c(ncn2COC(CO)CO)c(=O)[nH]1
> 100 µg/mL

Another compound: CC(=O)OC[C@H]1S[C@@H](n2nc(C)c(=S)[nH]c2=O)C[C@@H]1OC(C)=O
> 8 µg/mL
